Hey, just so you know, these numbers are from paper PMC8909834.

- method-description: Pharmacokinetics in mice
- Assay type: in vivo, BALB/c hairy mice
- condition-details: both sexes, BALB/c hairy, mouse, plasma, PO 10 mg/kg, 24.6 h, read-out: Plasma Conc.

- smi: "Cc1cnc(N[C@H]2CC[C@H](N)CC2)nc1-c1cnc2ccc(-c3ccccc3)cn12"
  unit-abbreviation: "ng/mL"
  concentration at 24.6 h: 0

----------
- method-description: Pharmacokinetics in mice
- Assay type: in vivo, BALB/c hairy mice
- condition-details: both sexes, BALB/c hairy, mouse, plasma, PO 100 mg/kg, 2.6 h, read-out: Plasma Conc.

- smi: "Cc1cnc(N[C@H]2CC[C@H](N)CC2)nc1-c1cnc2ccc(-c3ccccc3)cn12"
  concentration at 2.6 h (ng/mL): 3680
